Tested on: ANKA strain of P. berghei
Assay notes: single dose STI in vivo screen in infected mice
Parameters: species or system Plasmodium berghei
Condition: single 10 mg/kg po in 3% ethanol and 7% Tween 80; untreated control 5.6 ± 0.3

# Molecule, Survival (days) po
records = [
    ("O=C(C[C@H]1CC[C@]2(CC1)OOC1(O2)C2CC3CC(C2)CC1C3)N1CCOCC1 (stereo partly drawn)", "9.3 days"),
    ("CCCCCCCCS(=O)(=O)N1CCC2(CC1)OOC1(O2)C2CC3CC(C2)CC1C3 (stereo not drawn)", "6.3 days"),
    ("c1ccc(C2(c3ccccc3)OOC3(O2)C2CC4CC(C2)CC3C4)cc1 (stereo not drawn)", "6.0 days"),
    ("c1c[nH]c([C@H]2CC[C@]3(CC2)OOC2(O3)C3CC4CC(C3)CC2C4)n1 (stereo partly drawn)", "6.7 days"),
    ("OC12CC3CC(C1)C1(OOC4(CCC5(CC4)OCCO5)O1)C(C3)C2 (stereo not drawn) [OZ153]", "6.3 days"),
    ("CC1(C)CC(C)(C)CC2(C1)OOC1(O2)C2CC3CC(C2)CC1C3 (stereo not drawn)", "7.0 days"),
    ("O=C(c1ccncc1)N1CCC2(CC1)OOC1(O2)C2CC3CC(C2)CC1C3 (stereo not drawn)", "6.7 days"),
    ("[N-]=[N+]=NCC[C@H]1CC[C@]2(CC1)OOC1(O2)C2CC3CC(C2)CC1C3 (stereo partly drawn)", "10.3 days"),
    ("COC(=O)c1ccc(C2(c3ccccc3)OOC3(O2)C2CC4CC(C2)CC3C4)cc1 (stereo not drawn)", "5.7 days"),
]

====

Test system: ANKA strain of P. berghei
Assay notes: single dose STI in vivo screen in infected mice
Set-up: species or system Plasmodium berghei
Condition: single 10 mg/kg sc in 3% ethanol and 7% Tween 80; untreated control 5.6 ± 0.3
Protocol: In the single dose STI in vivo screen, Moro SPF or NMRI mice infected with the ANKA strain of P. berghei (groups of 3-5 mice) were treated on day one post-infection with trioxolanes dissolved or suspended in 3% ethanol and 7% Tween 80. […] Antimalarial activity was measured by percent reduction in parasitemia on day three post-infection and survival times compared to an untreated control group. […]
Property label: Survival (days) sc

# Compound, Result number
data = [
    ("Fc1ccc(OC2CCC3(CC2)OOC2(O3)C3CC4CC(C3)CC2C4)cc1 (centres unmarked)", 11.0),
    ("CCOC(=O)CCC(=O)N1CCC2(CC1)OOC1(O2)C2CC3CC(C2)CC1C3 (centres unmarked)", 6.3),
    ("O=C1c2ccccc2C(=O)N1C[C@H]1CC[C@@]2(CC1)OOC1(O2)C2CC3CC(C2)CC1C3 (some centres unmarked)", 7.3),
    ("CC(C)(C)NC(=O)N1CCC2(CC1)OOC1(O2)C2CC3CC(C2)CC1C3 (centres unmarked)", 9.7),
]

====

Test system: ANKA strain of P. berghei
Assay notes: single dose STI in vivo screen in infected mice
Design: species or system Plasmodium berghei
Condition: single 10 mg/kg sc in 3% ethanol and 7% Tween 80; untreated control 5.6 ± 0.3
Output: class label from Survival (days) sc. Mapping: low range = under 7 days, mid range = from 7 days up to 10 days, high range = 10 days and over

# Molecule, Label
data = [
    ("O=C1CCC2(CC1)OOC1(CCCCCCCCCCC1)O2 [OZ21]", "low range"),
    ("Cc1ccc(S(=O)(=O)N2CCC3(CC2)OOC2(O3)C3CC4CC(C3)CC2C4)cc1 (stereo not drawn) [OZ51]", "high range"),
    ("O=C(O)c1ccc(C[C@H]2CC[C@]3(CC2)OOC2(O3)C3CC4CC(C3)CC2C4)cc1 (stereo partly drawn) [OZ214]", "mid range"),
    ("O=C(C[n+]1ccccc1)NN=C1CCC2(CC1)OOC1(O2)C2CC3CC(C2)CC1C3.[Cl-] (stereo not drawn) [OZ55]", "mid range"),
    ("O=C(CN1C(=O)c2ccccc2C1=O)N1CCC2(CC1)OOC1(O2)C2CC3CC(C2)CC1C3 (stereo not drawn) [OZ93]", "high range"),
    ("CC1(C)CCC2(CC1)OOC1(O2)C2CC3CC(C2)CC1C3 (stereo not drawn) [OZ33]", "high range"),
    ("c1ccc(C2CCC3(CC2)OOC2(CCC(c4ccccc4)CC2)O3)cc1 (stereo not drawn) [OZ62]", "low range"),
    ("CCCC1CCC2(CC1)OOC1(O2)C2CC3CC(C2)CC1C3 (stereo not drawn) [OZ25]", "high range"),
    ("O=C1COC2(CCC3(CC2)OOC2(O3)C3CC4CC(C3)CC2C4)OC1 (stereo not drawn) [OZ130]", "mid range"),
    ("O=S(=O)(c1ccccc1)N1CCC2(CC1)OOC1(O2)C2CC3CC(C2)CC1C3 (stereo not drawn) [OZ60]", "high range"),
    ("COC(=O)c1ccc(C2(c3ccccc3)OOC3(O2)C2CC4CC(C2)CC3C4)cc1 (stereo not drawn) [OZ138]", "low range"),
    ("CN(C)C[C@H]1CC[C@]2(CC1)OOC1(O2)C2CC3CC(C2)CC1C3 (stereo partly drawn) [OZ232]", "mid range"),
    ("Cc1ccc(S(=O)(=O)NN=C2CCC3(CC2)OOC2(O3)C3CC4CC(C3)CC2C4)cc1 (stereo not drawn) [OZ39]", "mid range"),
    ("O=C(NC[C@H]1CC[C@]2(CC1)OOC1(O2)C2CC3CC(C2)CC1C3)c1cc[n+]([O-])cc1 (stereo partly drawn) [OZ264]", "high range"),
    ("CC(C)(C)CC(=O)N1CCC2(CC1)OOC1(O2)C2CC3CC(C2)CC1C3 (stereo not drawn) [OZ111]", "mid range"),
]
